Give measured IC50 for each item. Keep answers brief.
Tested on: HCT-116
Experiment: Cytotoxicity against human HCT116 cells after 96 hrs by MTS assay
Type: functional, cell-based
Conditions: HCT-116, 96 h
Numbers only, in µM.

Consider the following illustrative entries.
INSERT INTO results (line_notation, measurement_type, reported_measurement) VALUES
  ('c1ccc2c(N3CCN(CCN4CCOCC4)CC3)c3[nH]c4ccccc4c3nc2c1', 'IC50', 9.1),
  ('OCCCN1CCN(c2c3ccccc3nc3c2[nH]c2ccccc23)CC1', 'IC50', 2.4),
  ('c1ccc2c(N3CCN(CCN4CCCCC4)CC3)c3[nH]c4ccccc4c3nc2c1', 'IC50', 0.5),
  ('CN(C)CCCN1CCN(c2c3ccccc3nc3c2[nH]c2ccccc23)CC1', 'IC50', 0.9),
  ('CN1CCN(c2c3ccccc3nc3c2[nH]c2ccccc23)CC1', 'IC50', 3.5);

// input: 2 molecules below; output: IC50 for each
1. CN(C)CCN1CCN(c2c3cc(-c4ccncc4)ccc3nc3c2[nH]c2ccccc23)CC1
2. c1ccc2c(N3CCNCC3)c3[nH]c4ccccc4c3nc2c1

OUTPUT:
[20.9, 4.3]

// input: 2 molecules below; output: IC50 for each
1. CN(C)CCCn1c2ccccc2c2nc3ccccc3c(N3CCN(CCN(C)C)CC3)c21
2. CN(C)CCN1CCN(c2c3cc(-c4ccc(CCN5CCOCC5)cc4)ccc3nc3c2[nH]c2ccccc23)CC1

OUTPUT:
1: 3.4; 2: 3.8

====

Give measured IC50 for each item. Keep answers brief.
System: CA46
Experiment: Cytotoxicity against human CA46 cells after 24 hrs by MTS assay
Type: functional, cell-based
Conditions: CA46, 24 h
Give bare numbers, in µM.

INSERT INTO assay_data (line_notation, measured_on, measurement_type, reported_measurement) VALUES
  ('CCN(CC)CCNc1c2ccccc2nc2c1[nH]c1ccccc12', 'CA46', 'IC50', 10),
  ('CN(C)CCCn1c2ccccc2c2nc3ccccc3c(N3CCN(CCN(C)C)CC3)c21', 'CA46', 'IC50', 2.8);

INPUT: Which IC50 is listed for CN(C)CCN1CCN(c2c3ccccc3nc3c2[nH]c2ccccc23)CC1 ?
OUTPUT: 19.4

====

Give measured IC50 for each item. Keep answers brief.
System: HCT-116
Assay: Cytotoxicity against human HCT116 cells after 96 hrs by MTS assay
Type: functional, cell-based
Conditions: HCT-116, 96 h
Answers are plain numbers, in µM.

INSERT INTO results (line_notation, measured_on, measurement_units, reported_measurement) VALUES
  ('CN(C)CCN1CCN(c2c3cc(-c4ccc(F)c(F)c4)ccc3nc3c2[nH]c2ccccc23)CC1', 'HCT-116', 'µM', 3.7),
  ('CCN(CC)CCN1CCN(c2c3ccccc3nc3c2[nH]c2ccccc23)CC1', 'HCT-116', 'µM', 3.4),
  ('CN(C)CCCn1c2ccccc2c2nc3ccccc3c(N3CCN(C)CC3)c21', 'HCT-116', 'µM', 2.98),
  ('CCN(CC)CCNc1c2ccccc2nc2c1[nH]c1ccccc12', 'HCT-116', 'µM', 0.11),
  ('CN(C)CCN1CCN(c2c3ccccc3nc3c2[nH]c2ccccc23)CC1', 'HCT-116', 'µM', 0.97);

INPUT: Which IC50 is listed for COCCCN1CCN(c2c3ccccc3nc3c2[nH]c2ccccc23)CC1 ?
OUTPUT: 6.3

====

Give measured ΔTm for each item. Keep answers brief.
Tested on: Nucleic Acid
Assay: Thermal stability of c-MYC G-quadruplex DNA assessed as change in melting temperature at DNA:compound ratio 1:1 by spectropolarimeter analysis
Assay type: nucleic-acid assay
One number for each entry, in °C.

Consider the following illustrative entries.
INSERT INTO assay_data (line_notation, reported_measurement) VALUES
  ('OCCCN1CCN(c2c3ccccc3nc3c2[nH]c2ccccc23)CC1', 1.3),
  ('CN(C)CCN1CCN(c2c3cc(-c4ccc(CCN5CCOCC5)cc4)ccc3nc3c2[nH]c2ccccc23)CC1', 13.1),
  ('CN(C)CCN1CCN(c2c3cc(-c4ccc(F)c(F)c4)ccc3nc3c2[nH]c2ccccc23)CC1', 6.5),
  ('CCN(CC)CCN1CCN(c2c3ccccc3nc3c2[nH]c2ccccc23)CC1', 10.3),
  ('CN1CCN(c2c3ccccc3nc3c2[nH]c2ccccc23)CC1', 3),
  ('CN(C)CCN1CCN(c2c3cc(-c4ccncc4)ccc3nc3c2[nH]c2ccccc23)CC1', 8.6),
  ('c1ccc2c(-c3ccc(CCN4CCOCC4)cc3)c3[nH]c4ccccc4c3nc2c1', 1.9),
  ('CN(C)CCN1CCN(c2c3ccccc3nc3c2[nH]c2ccccc23)CC1', 6.7),
  ('c1ccc2c(N3CCNCC3)c3[nH]c4ccccc4c3nc2c1', 6.7),
  ('CN(C)CCCn1c2ccccc2c2nc3ccccc3c(N3CCN(CCN(C)C)CC3)c21', 16.5);

// input: 3 compounds below; output: ΔTm for each
1. COCCCN1CCN(c2c3ccccc3nc3c2[nH]c2ccccc23)CC1
2. CN(C)CCCN1CCN(c2c3ccccc3nc3c2[nH]c2ccccc23)CC1
3. CN(C)CCCn1c2ccccc2c2nc3ccccc3c(N3CCN(C)CC3)c21

OUTPUT:
1. 6.3
2. 11.4
3. 2.8

// input: 3 compounds below; output: ΔTm for each
1. CCN(CC)CCNc1c2ccccc2nc2c1[nH]c1ccccc12
2. c1ccc2c(N3CCN(CCN4CCCCC4)CC3)c3[nH]c4ccccc4c3nc2c1
3. c1ccc2c(N3CCN(CCN4CCOCC4)CC3)c3[nH]c4ccccc4c3nc2c1

OUTPUT:
1: 5.2; 2: 8.8; 3: 5.9
